Source listed as PubChem BioAssay (NCI).

tested on: HT29 colon; test: NCI tumour cell line growth inhibition, 48 h
Some compounds, each annotated with its measured TGI.
MEASUREMENT_TYPE: TGI (µM)

compound=O=C1C=C2S[C@H]3C[C@]2(C=C1Br)c1c(c(O)c2c4c1=NCCC=4C=N2)N3 experimental_system="HT29 colon" measurement_type=TGI limit_sign== experimental_result=1.55
compound=CN(c1c(Cl)cccc1Cl)S(=O)(=O)c1ccccc1[N+](=O)[O-] experimental_system="HT29 colon" measurement_type=TGI limit_sign=> experimental_result=100
compound=COc1cc2c(cc1C)NC(=O)/C2=C/c1c(Cl)[nH]c2cc(C)c(OC)cc12 experimental_system="HT29 colon" measurement_type=TGI limit_sign== experimental_result=17.6
compound=c1cncc(CNc2ccccc2-c2nnc(Nc3ccc4c(c3)OCO4)o2)c1 experimental_system="HT29 colon" measurement_type=TGI limit_sign== experimental_result=1.27
compound=CN(C)c1nc(N(C)C)nc(N(C)CN(C)c2ccccc2)n1 experimental_system="HT29 colon" measurement_type=TGI limit_sign=> experimental_result=100
compound="CC(=O)OCC1C(C(C)OC(C)=O)CCC2C1CCC1(C)C(OC(C)=O)CCC21 (stereo not given)" experimental_system="HT29 colon" measurement_type=TGI limit_sign== experimental_result=32.8
compound=Cc1ccc2nc3c(Cl)cc(=O)cc-3sc2c1 experimental_system="HT29 colon" measurement_type=TGI limit_sign== experimental_result=91.7
compound=NC(=O)c1cnc2sc3ccccc3n2c1=O experimental_system="HT29 colon" measurement_type=TGI limit_sign=> experimental_result=100
compound="CC(=O)OC1C=CC2CCN3C(=O)c4cc5c(cc4[C@H]1C23)OCO5 (stereo not given in full)" experimental_system="HT29 colon" measurement_type=TGI limit_sign=> experimental_result=100
compound="CC1C2Cc3ccc(O)cc3C1(C)CCN2C (stereo not given)" experimental_system="HT29 colon" measurement_type=TGI limit_sign=> experimental_result=100
compound=Clc1ccc(-c2nc3c(-c4ccc(Cl)cc4)nc(-c4ccccc4)cn3c2-c2ccc(Cl)cc2)cc1 experimental_system="HT29 colon" measurement_type=TGI limit_sign=> experimental_result=50
compound=O=C(c1cc2ccccc2[nH]1)C(O)(c1cc2ccccc2[nH]1)c1cc2ccccc2[nH]1 experimental_system="HT29 colon" measurement_type=TGI limit_sign=> experimental_result=246
compound="Cc1cccc2c1Oc1cc(Cl)ccc1C2NC(=O)CCN1CCCCC1 (stereo not given)" experimental_system="HT29 colon" measurement_type=TGI limit_sign== experimental_result=27.1
compound=O=C(CCCn1c2c(sc3ncccc32)c(=O)n2nnc(-c3ccccc3)c12)NCCc1cnc[nH]1 experimental_system="HT29 colon" measurement_type=TGI limit_sign== experimental_result=54.9
compound=CCN(CC)CCNc1ccc([N+](=O)[O-])c2nc3ccccc3c(N)c12 experimental_system="HT29 colon" measurement_type=TGI limit_sign== experimental_result=2.28
compound=Fc1ccc(-c2nc(-c3nc4ccc(Cl)cc4[nH]3)cc3c2[nH]c2ccccc23)cc1 experimental_system="HT29 colon" measurement_type=TGI limit_sign== experimental_result=12.8
compound=O=S(=O)(NCCNc1nccc(-c2c(-c3cccc(O)c3)nc3sccn23)n1)c1ccc(F)cc1 experimental_system="HT29 colon" measurement_type=TGI limit_sign== experimental_result=32.4
compound=CC1=C(C(=O)Nc2cccc(C(F)(F)F)c2)C(c2ccc(O)cc2)C(C(=O)Nc2cccc(C(F)(F)F)c2)=C(C)N1 experimental_system="HT29 colon" measurement_type=TGI limit_sign== experimental_result=31.7
compound=COc1cc2cc3c4c(cc(OC)c(OC)c4c2cc1OC)CCN3C(=O)CCCC(=O)O experimental_system="HT29 colon" measurement_type=TGI limit_sign=> experimental_result=100
compound=O=C(N=Nc1ccc([N+](=O)[O-])cc1)NNc1ccc([N+](=O)[O-])cc1 experimental_system="HT29 colon" measurement_type=TGI limit_sign== experimental_result=61.8
